# Test description: Emulsion zeta potential by electrophoretic mobility
# Type: physicochemical
# Applied conditions: emulsion containing 0.0025% QA; 25° C., dilution 1:250
Would you mind telling me the reported Emulsions zeta potential of each entry?

Some solved cases for reference:
CCCCCCCCCCCCCCCC[N+](C)(C)Cc1ccccc1 [BAK C16, cetylkonium chloride] : +24.4 mV
CCCCCCCCCCCCCC[N+](C)(C)Cc1ccccc1 [BAK C14, myristalkonium chloride] : +11.4 mV
CCCCCCCCCCCCCCCC[N+](C)(C)C.[Br-] [ATAB C16, cetyl trimethyl ammonium bromide] : +11.9 mV

// Emulsions zeta potential value for CCCCCCCCCCCC[N+](C)(C)C.[Br-] [ATAB C12, lauryl trimethyl ammonium bromide] : −35.5 mV

====

# Test description: Emulsion zeta potential by electrophoretic mobility
# Format: physicochemical
# Applied conditions: emulsion containing 0.005% QA; 25° C., dilution 1:250
Reported metric: Emulsions zeta potential (mV)
Numbers only, in mV.

CCCCCCCCCCCC[N+](C)(C)Cc1ccccc1 [BAK C12, benzododecinium chloride] : −6.9

Now for a further compound.
The compound listed as CCCCCCCCCCCC[N+](C)(C)C.[Br-] [ATAB C12, lauryl trimethyl ammonium bromide] has a reported Emulsions zeta potential of −14.6

====

# Test description: Emulsion droplet size by dynamic light scattering
# Format: physicochemical
# Applied conditions: emulsion containing 0.005% QA; 25° C., diluted in double distilled water
Can you tell me Emulsion droplet size for the items I'm about to list?

Example cases with answers are listed next.
CCCCCCCCCCCCCCCC[N+](C)(C)Cc1ccccc1 [BAK C16, cetylkonium chloride] : 148 nm
CCCCCCCCCCCCCC[N+](C)(C)Cc1ccccc1 [BAK C14, myristalkonium chloride] : 190 nm
CCCCCCCCCCCC[N+](C)(C)Cc1ccccc1 [BAK C12, benzododecinium chloride] : 198 nm

The compound listed as CCCCCCCCCCCCCCCC[N+](C)(C)C.[Br-] [ATAB C16, cetyl trimethyl ammonium bromide] has a reported Emulsion droplet size of 212 nm

====

# Test description: Emulsion zeta potential by electrophoretic mobility
# Format: physicochemical
# Applied conditions: emulsion containing 0.005% QA; 25° C., dilution 1:250
Reported metric: Emulsions zeta potential

Example results:
CCCCCCCCCCCCCCCC[N+](C)(C)C.[Br-] [ATAB C16, cetyl trimethyl ammonium bromide] : +20.2 mV
CCCCCCCCCCCCCCCC[N+](C)(C)Cc1ccccc1 [BAK C16, cetylkonium chloride] : +31.4 mV

Kindly consider the entry below.
According to the records, this compound CCCCCCCCCCCCCC[N+](C)(C)Cc1ccccc1 [BAK C14, myristalkonium chloride] displays Emulsions zeta potential of +19.6 mV

The values you see were collected from patent US9132071B2.
